- System: MT4
- experiment: Cytotoxicity against human MT4 cells assessed as reduction in cell viability after 24 hrs by CytoTox-Glo cytotoxicity assay
- Type: cell-based
- measurement setup: mt4, 24 h, read-out: CC50
Listed below: CC50 values for each entry.
reported metric: CC50

[
  {
    "molecule": "COc1ccc(N(C)C(=O)[C@H](Cc2ccccc2)NC(=O)c2cn(Cc3ccc4ccccc4c3)nn2)cc1",
    "observed": "> 57.7 µM"
  },
  {
    "molecule": "COc1ccc(N(C)C(=O)[C@H](Cc2ccccc2)NC(=O)c2cn(C[S+]([O-])c3ccccc3)nn2)cc1 (stereo not given in full)",
    "observed": "> 19.3 µM"
  },
  {
    "molecule": "COc1ccc(N(C)C(=O)[C@H](Cc2ccccc2)NC(=O)c2cn(Cc3cccc4ccccc34)nn2)cc1",
    "observed": "> 19.2 µM"
  },
  {
    "molecule": "COc1ccc(N(C)C(=O)[C@H](Cc2ccccc2)NC(=O)c2cn(Cc3ccccc3Cl)nn2)cc1",
    "observed": "> 19.8 µM"
  },
  {
    "molecule": "COC(=O)c1cccc(-n2cc(C(=O)N[C@@H](Cc3ccccc3)C(=O)N(C)c3ccc(OC)cc3)nn2)c1",
    "observed": "> 19.5 µM"
  }
]
